Parameter: inhibition at 1 µM. Scope: all listed entries.
- assay target: IKK-epsilon (Homo sapiens)
- Sequence (Q14164 whole entry): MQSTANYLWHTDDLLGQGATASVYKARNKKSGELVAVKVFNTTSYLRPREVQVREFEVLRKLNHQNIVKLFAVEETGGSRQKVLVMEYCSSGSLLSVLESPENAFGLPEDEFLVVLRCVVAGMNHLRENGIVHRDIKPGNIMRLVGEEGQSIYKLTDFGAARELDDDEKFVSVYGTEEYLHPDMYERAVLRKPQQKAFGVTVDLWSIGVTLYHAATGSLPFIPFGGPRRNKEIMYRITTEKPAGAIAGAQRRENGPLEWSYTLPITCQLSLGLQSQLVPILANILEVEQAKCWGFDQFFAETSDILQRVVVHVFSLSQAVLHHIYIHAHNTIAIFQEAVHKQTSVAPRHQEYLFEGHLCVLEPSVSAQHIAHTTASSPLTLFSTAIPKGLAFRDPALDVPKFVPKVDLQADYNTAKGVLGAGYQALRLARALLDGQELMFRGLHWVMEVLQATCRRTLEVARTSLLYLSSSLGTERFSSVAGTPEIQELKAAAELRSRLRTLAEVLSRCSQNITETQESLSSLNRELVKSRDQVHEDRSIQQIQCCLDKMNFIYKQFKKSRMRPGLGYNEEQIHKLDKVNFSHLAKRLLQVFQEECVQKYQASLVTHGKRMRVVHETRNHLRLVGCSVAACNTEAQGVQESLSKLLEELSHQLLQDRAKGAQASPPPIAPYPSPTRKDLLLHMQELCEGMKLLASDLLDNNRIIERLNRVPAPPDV
- assay details: KINOMEscan competition binding
- measurement context: read-out: %Inh IKK-epsilon
readout name: inhibition at 1 µM (%)

molecule="Cc1ccc(NC(=O)Nc2cccc(C(F)(F)F)c2)cc1 [UNC10225187A]" readout_name="inhibition at 1 µM" readout_units=% result_number=0
molecule="CS(=O)(=O)Cc1ccc(Nc2nccc(-c3c(-c4cccc(NC(=O)C5CCCCC5)c4)nn4ncccc34)n2)cc1 [UNC10225159A]" readout_name="inhibition at 1 µM" readout_units=% result_number=32
molecule="O=c1cc(N2CCOCC2)nc2n(Cc3cccc(Cl)c3Cl)c(C3CC3)nn12 [UNC10225469A]" readout_name="inhibition at 1 µM" readout_units=% result_number=0
molecule="COc1cccc(OC)c1C(=O)Nc1cccc(-c2nn3ccccc3c2-c2ccnc(Nc3cccc(F)c3)n2)c1 [UNC10225310A]" readout_name="inhibition at 1 µM" readout_units=% result_number=4
molecule="Cn1cc(-c2cnc(N)c3c(-c4ccc5c(c4)CCN5C(=O)Cc4ccccc4)csc23)cn1 [UNC10225012A]" readout_name="inhibition at 1 µM" readout_units=% result_number=59
